Test system: carrageenan induced edema
ASSAY_NOTES: Anti-inflammatory activity, carrageenan induced rat paw edema
Type: in vivo, Wistar rats
CONDITION_DESCRIPTION: inhibition of edema, rats, after 3 h
# % Inhibition ± SEM After 3 h annotations

These solved cases illustrate the format of a correct answer.
SAMPLE_SMILES: O=C1C(=Cc2cc3cc(Cl)ccc3nc2Cl)C=C(c2ccc(-c3ccccc3)cc2)N1Cc1ccccc1
MEASURE: % Inhibition ± SEM After 3 h
TEST_RESULT: 63 ± 0.14^∗ %
//
SAMPLE_SMILES: O=C1OC(c2ccc(-c3ccccc3)cc2)=CC1=Cc1cc2cc([N+](=O)[O-])ccc2nc1Cl
MEASURE: % Inhibition ± SEM After 3 h
TEST_RESULT: 50 ± 0.13%

Task: Requested field: % Inhibition ± SEM After 3 h. Item: O=C1C(=Cc2cc3cc(Cl)ccc3nc2Cl)C=C(c2ccc3ccccc3c2)N1Cc1ccccc1
Output: 70 ± 0.23^∗ %

====

# MIC annotations
System: Bacillus subtilis (MTCC 121)

These solved cases illustrate the format of a correct answer.
COMPOUND: O=C1C(=Cc2cc3ccccc3nc2Cl)C=C(c2ccc(-c3ccccc3)cc2)N1Cc1ccccc1 [Compound 7e]
MIC: > 100 µg/mL

COMPOUND: O=C1C(=Cc2cc3cc([N+](=O)[O-])ccc3nc2Cl)C=C(c2ccc(-c3ccccc3)cc2)N1Cc1ccccc1 [Compound 7h]
MIC: > 100 µg/mL

// below: MIC requested for another compound
Task: Requested field: MIC. Item: O=C1C(=Cc2cc3ccccc3nc2Cl)C=C(c2ccc3ccccc3c2)N1Cc1ccccc1 [Compound 7a]
Output: > 100 µg/mL

====

# % Inhibition ± SEM After 3 h annotations
System: carrageenan induced edema
ASSAY_NOTES: Anti-inflammatory activity, carrageenan induced rat paw edema
Assay type: in vivo, Wistar rats
CONDITION_DESCRIPTION: inhibition of edema, rats, after 3 h

These solved cases illustrate the format of a correct answer.
SAMPLE_SMILES: Cc1ccc2nc(Cl)c(C=C3C=C(c4ccc5ccccc5c4)N(Cc4ccccc4)C3=O)cc2c1
ASSAY_SYSTEM: carrageenan induced edema
% Inhibition ± SEM After 3 h: 57 ± 0.25^∗ %

SAMPLE_SMILES: O=C1NC(c2ccc(-c3ccccc3)cc2)=CC1=Cc1cc2cc([N+](=O)[O-])ccc2nc1Cl
ASSAY_SYSTEM: carrageenan induced edema
% Inhibition ± SEM After 3 h: 50 ± 0.18%

// below: % Inhibition ± SEM After 3 h requested for another compound
Task: Requested field: % Inhibition ± SEM After 3 h. Item: O=C1OC(c2ccc3ccccc3c2)=CC1=Cc1cc2cc([N+](=O)[O-])ccc2nc1Cl
Output: 56 ± 0.25^∗ %
